# assay-text: qHTS for Inhibitors of human tyrosyl-DNA phosphodiesterase 1 (TDP1): qHTS in cells in absence of CPT; also: nearly all actives have a fitted effect of over 55% in size
# measurement-setup: DT40 Tdp1-/- hTDP1 cells, no CPT, ATP luminescence, 48 h
The campaign covered roughly 420,000 compounds. About 64,000 (15%) were called active. About 27% were inconclusive and are not listed. Calls follow the shape of the dose curve; as a rule, active = well fitted inhibition curve with a large enough effect; inconclusive = small, poorly fitted or top-dose-only effect; inactive = flat fitted curve, though single readings scatter. A selection follows.
// allowed return values: 1 (yes) for active, 0 (no) for inactive

compound: CCOc1ccccc1NC(=S)N1CCN(c2cccc(C)c2C)CC1
class-assignment: 1 (yes)

compound: COc1cc2c(cc1OC)C(=O)NCC(C)(C)O2
class-assignment: 0 (no)

Enquiry: Assay outcome for O=C(c1ccc(CN2CCOCC2)cc1)N1CCN(c2ccccc2F)CC1 : what was it?
Return: 0 (no)

Enquiry: Assay outcome for Cc1c(CCC(=O)O)c(=O)oc2cc3occ(-c4ccccc4)c3cc12 : what was it?
Return: 0 (no)

Enquiry: Assay outcome for COc1ccc(CCNc2ncnc3onc(-c4ccc(Cl)cc4)c23)c(OC)c1 : what was it?
Return: 1 (yes)

Enquiry: Assay outcome for CCOC(=O)C1=C(CN2CCCCCC2)NC(=O)NC1c1cccc([N+](=O)[O-])c1 (configuration not stated) : what was it?
Return: 1 (yes)

Enquiry: Assay outcome for COc1ccc(CNc2ncncc2-c2ccccc2C)c(OC)c1 : what was it?
Return: 0 (no)

Enquiry: Assay outcome for CCc1ccc(N2CC(C(=O)Nc3ccc(S(=O)(=O)Nc4nccs4)cc3)CC2=O)cc1 (configuration not stated) : what was it?
Return: 0 (no)

Enquiry: Assay outcome for CC(NC(=O)c1ccccc1C(=O)O)c1ccc(-n2ccnc2)cc1 (configuration not stated) : what was it?
Return: 0 (no)

Enquiry: Assay outcome for CC1C(=O)C(C)C(c2ccc(O)cc2)NC1c1ccc(O)cc1 (configuration not stated) : what was it?
Return: 0 (no)

Enquiry: Assay outcome for CCc1ccc(CN2C(=O)c3ccccc3C2C(=O)NCC2CCCO2)cc1 (configuration not stated) : what was it?
Return: 0 (no)

Enquiry: Assay outcome for Cc1ccc2nc3c(cc(C(=O)NC4CCCCC4)c(=N)n3C(C)C)c(=O)n2c1 : what was it?
Return: 0 (no)

Enquiry: Assay outcome for CCN1CCC(O)(/C=C/c2ccc(C)cc2)C(C(=O)/C=C/c2ccc(C)cc2)C1 (configuration not stated) : what was it?
Return: 1 (yes)

----------
# assay-text: qHTS for Inhibitors of human tyrosyl-DNA phosphodiesterase 1 (TDP1): qHTS in cells in absence of CPT; also: nearly all actives have a fitted effect of over 55% in size
# measurement-setup: DT40 Tdp1-/- hTDP1 cells, no CPT, ATP luminescence, 48 h
The whole screen tested about 420,000 compounds, of which about 64,000 (15%) were called active. About 27% were inconclusive and are not listed. Calls come from the whole dose curve; as a rule, active = well fitted inhibition curve with a large enough effect; inconclusive = small, poorly fitted or top-dose-only effect; inactive = flat fitted curve, though single readings scatter. Not all results are given here.
// allowed return values: active, inactive

compound: O=C(NCCCN1CCCCC1)C1CCCN(c2ncnc3c2nc2n3CCCCC2)C1 (stereo not given)
class-assignment: inactive

Enquiry: Assay outcome for O=C(COC(=O)c1ccc(NS(=O)(=O)c2cccs2)cc1O)Nc1ccc(F)cc1 : what was it?
Return: inactive

Enquiry: Assay outcome for CCCN(CCC)C(=O)C1CCCN(c2ncnc3c2nc2n3CCCCC2)C1 (stereo not given) : what was it?
Return: active

Enquiry: Assay outcome for COc1cccc(NC(=O)C2CCCN(c3ncnc4c3nc3n4CCCCC3)C2)c1 (stereo not given) : what was it?
Return: active

Enquiry: Assay outcome for COCCNc1ncnc2c1nc1n2CCCC1 : what was it?
Return: inactive

----------
# assay-text: qHTS for Inhibitors of human tyrosyl-DNA phosphodiesterase 1 (TDP1): qHTS in cells in absence of CPT; also: nearly all actives have a fitted effect of over 55% in size
# measurement-setup: DT40 Tdp1-/- hTDP1 cells, no CPT, ATP luminescence, 48 h
Among all 420,000 compounds or so, about 64,000 (15%) were called active. Inconclusive results (about 27%) are left out. Calls follow the shape of the dose curve; as a rule, active = well fitted inhibition curve with a large enough effect; inconclusive = small, poorly fitted or top-dose-only effect; inactive = flat fitted curve, though single readings scatter. Only a sample is shown.
// allowed return values: YES = active, NO = inactive

compound: COc1ccc(NC(=O)COC(=O)CNC(=O)C2CCCCC2)cc1
class-assignment: NO
--
compound: Cc1ccc(S(=O)(=O)N(C)C)cc1NC(=O)c1ccccc1Br
class-assignment: NO
--
compound: O=C(NCCN1CCOCC1)Nc1cccc(Cl)c1
class-assignment: NO
--
compound: Cc1ccc(S(=O)(=O)N(C)C)cc1NC(=O)c1n[nH]c(=O)c2ccccc12
class-assignment: YES
--
compound: CC1CC(C)CN(CC(=O)Nc2ccc(S(N)(=O)=O)cc2)C1 (centres undefined)
class-assignment: NO
--
compound: CC[C@]1(O)CC2CN(CCc3c([nH]c4ccccc34)[C@@](C(=O)OC)(c3cc4c(cc3OC)N(C=O)[C@H]3[C@@](O)(C(=O)OC)[C@H](OC(C)=O)[C@]5(CC)C=CCN6CC[C@]43[C@@H]65)C2)C1 (some centres undefined)
class-assignment: NO
--
compound: O=C(NCCCN1CCCCC1)c1ccc2c(c1)NC(=O)C(N1CCOCC1)S2 (centres undefined)
class-assignment: NO
--
compound: O=C(C[C@H]1CC[C@@H](NC(=O)c2ccncc2)[C@@H](CO)O1)NCC1CC1
class-assignment: NO

Please turn your attention to the following entry.
Enquiry: Assay outcome for CCN1CCN(CCNC(=O)c2ccc3c(c2)NC(=O)/C(=C\c2cccc(Cl)c2)S3)CC1 : what was it?
Return: YES

----------
# assay-text: qHTS for Inhibitors of human tyrosyl-DNA phosphodiesterase 1 (TDP1): qHTS in cells in absence of CPT; also: nearly all actives have a fitted effect of over 55% in size
# measurement-setup: DT40 Tdp1-/- hTDP1 cells, no CPT, ATP luminescence, 48 h
Screen size: about 420,000 compounds; about 64,000 (15%) were called active. Inconclusive results (about 27%) are left out. Calls follow the shape of the dose curve; as a rule, active = well fitted inhibition curve with a large enough effect; inconclusive = small, poorly fitted or top-dose-only effect; inactive = flat fitted curve, though single readings scatter. Only a sample is shown.
// allowed return values: active, inactive

compound: O=C(NCCCn1ccnc1)c1cc(-c2ccccc2)on1
class-assignment: active

Please turn your attention to the following entry.
Enquiry: Assay outcome for Cc1cccc(C)c1NC(=O)N1CC=C(n2c(=O)[nH]c3ccccc32)CC1 : what was it?
Return: active

----------
# assay-text: qHTS for Inhibitors of human tyrosyl-DNA phosphodiesterase 1 (TDP1): qHTS in cells in absence of CPT; also: nearly all actives have a fitted effect of over 55% in size; also: potency is read from the fitted curve at half-maximal effect
# measurement-setup: DT40 Tdp1-/- hTDP1 cells, no CPT, ATP luminescence, 48 h
Out of some 420,000 compounds screened, about 64,000 (15%) were called active. Roughly 27% stayed inconclusive and do not appear here. Only a sample is shown.
property-measured: Potency

Please review the entries below; each comes with its answer.
compound: CC(C)(C)NC(=O)COc1ccc(CNc2ccc3[nH]c(=O)[nH]c3c2)cc1
observed: inactive

compound: O=C(Cc1ccc(Cl)c(Cl)c1)Nc1ccc(SC(F)F)cc1
observed: inactive

compound: Cc1nc2ccccc2c(C(=O)O)c1-c1ccccn1
observed: inactive

compound: O=C(Nc1ccc2c(c1)OCCO2)C1CCCC1
observed: inactive

compound: CCN(CC)C(=O)CSc1nc2ccccc2o1
observed: inactive

compound: Cc1cc(-c2ccc(C)c(S(=O)(=O)NCCCN(Cc3ccccc3)C(C)C)c2)on1
observed: 13 µM (active)

compound: COc1ccc(/C=C2/C(=O)N(c3ccccc3)N=C2C)c(OC)c1
observed: inactive

compound: Cc1ccc(/C=N/NC(=O)CSc2nc3ccccc3o2)cc1
observed: 23.1 µM (active)

Enquiry: Request the reported Potency associated with O=C(Oc1ccccc1)Oc1ccc2c(c1)oc(=O)c1ccccc12
Return: inactive

Enquiry: Request the reported Potency associated with O=C(NCCS(=O)(=O)c1ccc(Br)cc1)c1ccccc1Cl
Return: inactive

----------
# assay-text: qHTS for Inhibitors of human tyrosyl-DNA phosphodiesterase 1 (TDP1): qHTS in cells in absence of CPT; also: nearly all actives have a fitted effect of over 55% in size
# measurement-setup: DT40 Tdp1-/- hTDP1 cells, no CPT, ATP luminescence, 48 h
Out of some 420,000 compounds screened, about 64,000 (15%) were called active. About 27% were inconclusive and are not listed. The list is a sample of the results.
property-measured: outcome

molecule: COC(=O)c1sc(C(F)(F)F)c(-c2ccccc2)c1S(=O)(=O)N(C)C
outcome: inactive
//
molecule: O=C1C=C(NCCNc2c(F)c(F)c(CO)c(F)c2F)CCC1
outcome: inactive
//
molecule: O=S(=O)(NCCS(=O)(=O)N1CCN(c2ccccc2)CC1)c1ccc(F)cc1
outcome: inactive
//
molecule: Nc1nc(SCC(=O)NCCN2CCOCC2)nc2sc3c(c12)CCC3
outcome: inactive

Enquiry: Request the reported outcome associated with CCN(CC)C(=O)COc1coc(CN2CCN(Cc3ccccc3)CC2)cc1=O
Return: inactive

Enquiry: Request the reported outcome associated with CCCCc1nc2ccc(F)cc2cc1C
Return: inactive

Enquiry: Request the reported outcome associated with CCSc1nc2c(c(=O)[nH]1)C(c1cccnc1)C(C(=O)OC(C)C)=C(C)N2 (stereo not given)
Return: inactive

Enquiry: Request the reported outcome associated with CC(Sc1nnc(CNC(=O)c2ccccc2F)n1C)C(=O)Nc1nccs1 (stereo not given)
Return: inactive

Enquiry: Request the reported outcome associated with Cc1cc(C)cc(OCC(=O)O/N=C(\N)Cc2ccc([N+](=O)[O-])cc2)c1
Return: inactive

Enquiry: Request the reported outcome associated with CCOc1ccc(CCN2C(=O)C(=O)N([C@@H](CC(C)C)CN3CCC[C@H]3CN3C(=O)C(=O)NC[C@@H]3Cc3ccccc3)C[C@@H]2CC(C)C)cc1
Return: inactive
